Assay protocol: Plasma stability test, rat plasma
Condition: Rat plasma, 37°C, 120 min
Endpoint label: Remaining rate (%) 120 min
// note: answer is a bare numeric in %

Compound	Measure unit	Remaining rate (%) 120 min
[2H]C([2H])([2H])[C@@H]1Oc2nc(-c3cc(O)cc4ccc(F)c(C#C)c34)c(F)c3nc(OCC4(CN5CCC(=CF)CC5)CC4)nc(c23)N2C[C@H]3CC[C@H](N3)[C@@H]12 [Example 164]	%	95.03
C#Cc1c(F)ccc2cc(O)cc(-c3nc4c5c(nc(OCC6(CN7CCC(=C(F)F)CC7)CC6)nc5c3F)N3C[C@H]5CC[C@H](N5)[C@H]3CO4)c12 [Example 1-1]	%	80.60
C#Cc1c(F)ccc2cc(O)cc(-c3nc4c5c(nc(OCC6(CN7CCC(=C(F)F)CC7)CC6)nc5c3F)N3C[C@H]5CC[C@H](N5)[C@H]3[C@H](C)O4)c12 [Example 19-1]	%	94.09
[2H]C([2H])(Oc1nc2c3c(nc(-c4cc(O)cc5ccc(F)c(C#C)c45)c(F)c3n1)O[C@@H](C)[C@@H]1[C@@H]3CC[C@H](CN21)N3)C1(C([2H])([2H])N2CCC(=CF)CC2)CC1 [Example 291]	%	98.20
C#Cc1c(F)ccc2cc(O)cc(-c3nc4c5c(nc(OCC6(CN7CCC(=CF)CC7)CC6)nc5c3F)N3C[C@H]5CC[C@H](N5)[C@H]3[C@H](C)O4)c12 [Example 129]	%	95.62

Consider the record given below.
IN: Any idea what Remaining rate (%) 120 min was measured for CC[C@H](C)C(=O)O[C@H]1C[C@@H](C)C=C2C=C[C@H](C)[C@H](CC[C@@H]3C[C@@H](O)CC(=O)O3)[C@H]21 [Lovastatin, lovastatin, reference compound] ?
OUT: 0.30

* * *

Assay protocol: Pharmacokinetic determination in mice (IV and PO, plasma, LCMS/MS)
Assay type: in vivo, Balb/c mice
Condition: male, Balb/c, mouse, in vivo, po, 30 mg/kg
Text: • 1. Study objective: Balb/c mice were used as test animals to study the pharmacokinetic behavior of the compounds in mice (plasma) after oral administration. • 2. […]
Endpoint label: Cmax (µg/mL)
Give the quantity in µg/mL, number only.

IN: For C#Cc1c(F)ccc2cc(O)cc(-c3ncc4c(N5CC6CCC(C5)N6)nc(OC[C@@]56CCCN5C[C@H](F)C6)nc4c3F)c12 [MRTX-1133, reference compound] , what is its reported Cmax?
OUT: 0.011

* * *

Assay protocol: Pharmacokinetic determination in rats (IV and PO, plasma, LCMS/MS)
Assay type: in vivo, SD rats
Condition: rat, in vivo; PO, 30 mg/kg, male SD rats, overnight fasting, plasma; read-out: Tmax
Method: SD rats were used as test animals to study the pharmacokinetic behavior of the example compounds in rats (plasma) after oral administration. The example compounds of the present invention, made in house. 3 SD rats per group, male. Shanghai Jiesijie Experimental Animal Co., Ltd., animal production license number (SCXK (Shanghai) 2013-0006 N0.311620400001794). Formulation of a drug for oral administration: 10% Captisol in 50 mM citrate buffer pH 5.0. […]
A collection of compounds and their measured Tmax
Response body: numeric value in h, unit text excluded.

Below, 2 compounds whose answers are already recorded.
Compound	Recorded value
C#Cc1c(F)ccc2cc(O)cc(-c3nc4c5c(nc(OCC6(CN7CCC(=C(F)F)CC7)CC6)nc5c3F)N3C[C@H]5CC[C@H](N5)[C@H]3CO4)c12	6
[2H]C([2H])(Oc1nc2c3c(nc(-c4cc(O)cc5ccc(F)c(C#C)c45)c(F)c3n1)O[C@@H](C)[C@@H]1[C@@H]3CC[C@H](CN21)N3)C1(C([2H])([2H])N2CCC(=C(F)F)CC2)CC1	4

IN: Given [2H]C([2H])([2H])C1Oc2nc(-c3cc(O)cc4ccc(F)c(C#C)c34)c(F)c3nc(OCC4(CN5CCC(=CF)CC5C)CC4)nc(c23)N2CC3CCC(N3)C12 (centres unmarked) , state its recorded Tmax.
OUT: 2

IN: Consider the compound shown here: C#Cc1c(F)ccc2cc(O)cc(-c3nc4c5c(nc(OCC6(CN7CCC(=CF)CC7)CC6)nc5c3F)N3C[C@H]5CC[C@H](N5)[C@H]3[C@H](C)O4)c12 What is its recorded Tmax?
OUT: 1

IN: I'd like to know its Tmax. The compound in question is C#Cc1c(F)ccc2cc(O)cc(-c3nc4c5c(nc(OCC6(CN7CCC(=NOC)CC7)CC6)nc5c3F)N3C[C@H]5CC[C@H](N5)[C@H]3[C@H](C)O4)c12
OUT: 2
